# test_target: pooled human IgG
I'd appreciate it if you could supply Enzyme Activity Endpoint Assay (purified): Fc values for the items below.
Form entry: value (ng/µL) — number only.

Problem: # input protein: PRT-120 (protein) MRNATEAYNEETPKQITSVWTKGVTPLTPEDFRYNNEDVFHAPYLANQGWYDITKTFNGKDNLLCGAATAGNMLHWWFDQNKEEIEAYLKKHPEKQKIIFNNQELFDLKAAIDTKDSQTNSQLFNYFKDKAFPNLSARQLGVMPDLVLDMFINGYYLNVNKTQSTDVNRPYQDKDKRGGIFDAVFTRGDQTKLLTERHDLKNKGLNDISTLIKQELTEGKALALSHTYANVSINHVINLWGADFDAEGNLEAIYVTDSDSNESIGMKKYFVGINAAGKVAISAKKIEDENIGAQVLGLFTLSSGKDIWQQLS ; wanted: its Enzyme Activity Endpoint Assay (purified): Fc
Solution: 113

Problem: Then PRT-235 (protein) MEVVEVWPYGQNPNGKTEILSQTEDSESLQRLRDIEDFQAEKKMQNVVYTKWLDGVDVKDHDFRKIVDGNIAYYATPLLNGRGFYDINKDFNRDSDKCAAAVAANMFHYWLDINRDNVDRFLRQNPEKHGIIELPDGQLKLSDFLNTYESDHGYRDKSKLFDFISNNFNGPVWTDKLLDNYINGYAYNYKYGRTIEDPTKNTSKINFFKEVFNEKILTNNHSIRNQNEFSVLLSEALYTGKAIGLSYGPAGLRHSLGHIISVWGADLDADGNVVAIYVTDSDDKKLTIGDERVGLKRYKISTDDENRLRLTAYEETDNTGGQIRGLWTLDTGKYAWADYFDKTEQTGTDQAEQLEHHHHHH ?
Solution: 448

Problem: // same read-out, input: IdeS (protein) ANQEIRYSEVTPYHVTSVWTKGVTPPANFTQGEDVFHAPYVANQGWYDITKTFNGKDDLLCGAATAGNMLHWWFDQNKDQIKRYLEEHPEKQKINFNGEQMFDVKEAIDTKNHQLDSKLFEYFKEKAFPYLSTKHLGVFPDHVIDMFINGYRLSLTNHGPTPVKEGSKDPRGGIFDAVFTRGDQSKLLTSRHDFKEKNLKEISDLIKKELTEGKALGLSHTYANVRINHVINLWGADFDSNGNLKAIYVTDSDSNASIGMKKYFVGVNSAGKVAISAKEIKEDNIGAQVLGLFTLSTGQDSWNQTN
Solution: 524

Problem: Try PRT-65 (protein) MANQEIRYSEVTPYHVTSVWTKGVTPPANFTQGEDVFHAPYVANQGWYDITKTFNGKDDLLCGAATAGNMLHWWFDQNKDQIKRYLEEHPEKQKINFNGEQMFDVKEAIDTKNHQLDSKLFEYFKEKAFPYLSTKHLGVFPDLVIDMFINGYRLSLTNHGPTPVKEGSKDPRGGIFDAVFTRGDQSKLLTSRHDFKEKNLKEISDLIKKELTEGKALGLSHTYANVRINHVINLWGADFDSNGNLKAIYVTDSDSNASIGMKKYFVGVNSAGKVAISAKEIKEDNIGAQVLGLFTLSTGQDSWNQTN next.
Solution: 100

Problem: Another protein to look at: PRT-129 (protein) MRNATEAYAKEVPHQITSVWTKGVTPLTPEQFRYNNEDVFHAPYLANQGWYDITKAFDGKDNLLCGAATAGNMLHWWFDQNKTEIEAYLSKHPEKQKIIFNNQELFDLKAAIDTKDSQTNSQLFNYFRDKAFPNLSARQLGVMPDLVLDMFINGYYLNVFKTQSTDVNRPYQDKDKRGGIFDAVFTRGDQTKLLTARHDLKNKGLNDISTLIKQELTEGRALALSHTYANVSISHVINLWGADFNAEGNLEAIYVTDSDANASIGMKKYFVGINAHGHVAISAKKIEGENIGAQVLGLFTLSSGKDIWQKLS
Solution: 169

Problem: Another protein: PRT-78 (protein) MANQEIRYSEETPYHVTSVWTKGVTPPADFTQGEDVFHAPYVANQGWYDITKTFNGKDDLLCGAATAGNMLHWWFDQNKEYIEAYLKKHPEKQKIMFGDQELLDVRKAINTKGSQKNSELFNYFRDKAFPNLSARRLGVMPDLVLDMFINGYYLNVTKTQTTDVNRTYQEKDKRGGIFDAVFTRGDQSKLLTSRHDFKEKGLKEISDLIKQELTEGKALGLSHTYANVRINHVINLWGADFDSDGNLKAIYVTDSDSNASIGMKKYFVGVNSAGKVAISAKEIKEDNIGAQVLGLFTLSTGQDIWNQTN
Solution: 94

Problem: Now consider PRT-64 (protein) MANQEIRYSEVTPYHVTSVWTKGVTPPANFTQGEDVFHAPYVANQGWYDITKTFNGKDDLLCGAATAGNMLHWWFDQNKDQIDRYLEEHPEKQKINFNGEQMFDVKEAIDTKNHQLDSKLFEYFKEKAFPYLSTKHLGVFPDHVIDMFINGYRLSLTNHGPTPVKEGSKDPRGGIFDAVFTRGDQSKLLTSRHDFKEKNLKEISDLIKKELTEGKALGLSHTYANVRINHVINLWGADFDSNGNLKAIYVTDSDSNASIGMKKYFVGVNSAGKVAISAKEIKEDNIGAQVLGLFTLSTGQDSWNQTN .
Solution: 123

Problem: Would you kindly repeat that for IdeZ (protein) DDYQRNATEAYAKEVPHQITSVWTKGVTPLTPEQFRYNNEDVIHAPYLAHQGWYDITKAFDGKDNLLCGAATAGNMLHWWFDQNKTEIEAYLSKHPEKQKIIFNNQELFDLKAAIDTKDSQTNSQLFNYFRDKAFPNLSARQLGVMPDLVLDMFINGYYLNVFKTQSTDVNRPYQDKDKRGGIFDAVFTRGDQTTLLTARHDLKNKGLNDISTIIKQELTEGRALALSHTYANVSISHVINLWGADFNAEGNLEAIYVTDSDANASIGMKKYFVGINAHGHVAISAKKIEGENIGAQVLGLFTLSSGKDIWQKLS ?
Solution: 481
